- assay.target: mouse TMEM16A mutant I636A (Mus musculus, UniProt Q8BHY3, I636A)
- Construct: expressed in transfected cells; host or cells: HEK293T
- measurement.notes: Inside-out patch recording of 1PBC block, mutant I636A
- Type: cell-based
- protocol.conditions: 20 mV; 15 µM Ca2+
measurement.name: pIC50
Bear in mind: pIC50 is minus log10 of a mol/L concentration; give just that figure.

Req: Determine its reported pIC50: "N#Cc1c(C(F)(F)F)cc(O)n2c1nc1ccccc12"
Resp: 5.26

----------
- assay.target: mouse TMEM16A mutant Y598A (Mus musculus, UniProt Q8BHY3, Y598A)
- Construct: expressed in transfected cells; host or cells: HEK293T
- measurement.notes: Inside-out patch recording of 1PBC block, mutant Y598A
- Assay type: cell-based
- protocol.conditions: 80 mV; 2 µM Ca2+
measurement.name: IC50 (µM)
Just the number in µM, nothing appended.

Req: Determine its reported IC50: "N#Cc1c(C(F)(F)F)cc(O)n2c1nc1ccccc12"
Resp: 3.04

----------
- assay.target: mouse TMEM16A mutant I636A (Mus musculus, UniProt Q8BHY3, I636A)
- Construct: expressed in transfected cells; host or cells: HEK293T
- Sequence (Q8BHY3 1-960 I636A): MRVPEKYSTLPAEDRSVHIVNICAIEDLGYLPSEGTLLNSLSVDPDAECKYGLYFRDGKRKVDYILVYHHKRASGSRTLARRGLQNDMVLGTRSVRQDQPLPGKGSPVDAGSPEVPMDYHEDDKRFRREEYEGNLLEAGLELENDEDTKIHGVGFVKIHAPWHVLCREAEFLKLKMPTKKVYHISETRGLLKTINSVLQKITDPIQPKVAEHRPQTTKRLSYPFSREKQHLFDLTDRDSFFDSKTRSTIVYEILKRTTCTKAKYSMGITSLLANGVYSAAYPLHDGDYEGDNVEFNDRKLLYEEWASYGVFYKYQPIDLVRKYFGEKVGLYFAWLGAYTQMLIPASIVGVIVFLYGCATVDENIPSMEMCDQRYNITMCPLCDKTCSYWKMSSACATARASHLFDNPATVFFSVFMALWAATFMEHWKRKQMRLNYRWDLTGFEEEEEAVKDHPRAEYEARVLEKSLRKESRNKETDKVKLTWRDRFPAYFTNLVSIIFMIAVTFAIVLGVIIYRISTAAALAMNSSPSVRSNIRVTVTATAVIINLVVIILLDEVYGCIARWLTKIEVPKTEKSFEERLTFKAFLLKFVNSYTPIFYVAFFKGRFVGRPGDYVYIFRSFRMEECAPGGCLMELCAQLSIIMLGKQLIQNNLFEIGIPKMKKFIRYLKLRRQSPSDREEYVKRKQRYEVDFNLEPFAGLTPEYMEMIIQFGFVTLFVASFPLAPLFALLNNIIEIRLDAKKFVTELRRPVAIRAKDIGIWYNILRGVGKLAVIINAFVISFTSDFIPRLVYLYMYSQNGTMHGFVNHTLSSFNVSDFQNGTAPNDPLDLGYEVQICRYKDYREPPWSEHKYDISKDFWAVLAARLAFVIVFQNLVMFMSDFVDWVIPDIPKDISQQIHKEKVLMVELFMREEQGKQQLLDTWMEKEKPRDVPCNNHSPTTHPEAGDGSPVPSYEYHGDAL
- measurement.notes: Inside-out patch recording of 1PBC block, mutant I636A
- Type: cell-based
- protocol.conditions: I636A; V -20 mV
measurement.name: pIC50
Bear in mind: pIC50 is minus log10 of a mol/L concentration; give just that figure.

Req: Determine its reported pIC50: N#Cc1c(C(F)(F)F)cc(O)n2c1nc1ccccc12 [1PBC]
Resp: 5.08

----------
- assay.target: mouse TMEM16A mutant S517A (Mus musculus, UniProt Q8BHY3, S517A)
- Construct: expressed in transfected cells; host or cells: HEK293T
- measurement.notes: Inside-out patch recording of 1PBC block, mutant S517A
- Format: cell-based
- protocol.conditions: -120 mV; 2 µM Ca2+
measurement.name: IC50 (µM)
Just the number in µM, nothing appended.

Req: Determine its reported IC50: N#Cc1c(C(F)(F)F)cc(O)n2c1nc1ccccc12 [1PBC]
Resp: 18.4

----------
- assay.target: mouse TMEM16A mutant V511A (Mus musculus, UniProt Q8BHY3, V511A)
- Construct: expressed in transfected cells; host or cells: HEK293T
- measurement.notes: Inside-out patch recording of 1PBC block, mutant V511A
- Assay type: cell-based
- protocol.conditions: V511A; V 60 mV
measurement.name: pIC50
Bear in mind: pIC50 is minus log10 of a mol/L concentration; give just that figure.

Req: Recall the reported pIC50 of "N#Cc1c(C(F)(F)F)cc(O)n2c1nc1ccccc12" on mouse TMEM16A mutant V511A (Mus musculus, UniProt Q8BHY3, V511A) and write it down.
Resp: 4.98

----------
- assay.target: mouse TMEM16A mutant V543A (Mus musculus, UniProt Q8BHY3, V543A)
- Construct: expressed in transfected cells; host or cells: HEK293T
- measurement.notes: Inside-out patch recording of 1PBC block, mutant V543A
- Type: cell-based
- protocol.conditions: -20 mV; 15 µM Ca2+
measurement.name: pIC50
Bear in mind: pIC50 is minus log10 of a mol/L concentration; give just that figure.

Req: Determine its reported pIC50: N#Cc1c(C(F)(F)F)cc(O)n2c1nc1ccccc12 [1PBC]
Resp: 4.88

----------
- assay.target: mouse TMEM16A mutant Q637A (Mus musculus, UniProt Q8BHY3, Q637A)
- Construct: expressed in transfected cells; host or cells: HEK293T
- Sequence (Q8BHY3 1-960 Q637A): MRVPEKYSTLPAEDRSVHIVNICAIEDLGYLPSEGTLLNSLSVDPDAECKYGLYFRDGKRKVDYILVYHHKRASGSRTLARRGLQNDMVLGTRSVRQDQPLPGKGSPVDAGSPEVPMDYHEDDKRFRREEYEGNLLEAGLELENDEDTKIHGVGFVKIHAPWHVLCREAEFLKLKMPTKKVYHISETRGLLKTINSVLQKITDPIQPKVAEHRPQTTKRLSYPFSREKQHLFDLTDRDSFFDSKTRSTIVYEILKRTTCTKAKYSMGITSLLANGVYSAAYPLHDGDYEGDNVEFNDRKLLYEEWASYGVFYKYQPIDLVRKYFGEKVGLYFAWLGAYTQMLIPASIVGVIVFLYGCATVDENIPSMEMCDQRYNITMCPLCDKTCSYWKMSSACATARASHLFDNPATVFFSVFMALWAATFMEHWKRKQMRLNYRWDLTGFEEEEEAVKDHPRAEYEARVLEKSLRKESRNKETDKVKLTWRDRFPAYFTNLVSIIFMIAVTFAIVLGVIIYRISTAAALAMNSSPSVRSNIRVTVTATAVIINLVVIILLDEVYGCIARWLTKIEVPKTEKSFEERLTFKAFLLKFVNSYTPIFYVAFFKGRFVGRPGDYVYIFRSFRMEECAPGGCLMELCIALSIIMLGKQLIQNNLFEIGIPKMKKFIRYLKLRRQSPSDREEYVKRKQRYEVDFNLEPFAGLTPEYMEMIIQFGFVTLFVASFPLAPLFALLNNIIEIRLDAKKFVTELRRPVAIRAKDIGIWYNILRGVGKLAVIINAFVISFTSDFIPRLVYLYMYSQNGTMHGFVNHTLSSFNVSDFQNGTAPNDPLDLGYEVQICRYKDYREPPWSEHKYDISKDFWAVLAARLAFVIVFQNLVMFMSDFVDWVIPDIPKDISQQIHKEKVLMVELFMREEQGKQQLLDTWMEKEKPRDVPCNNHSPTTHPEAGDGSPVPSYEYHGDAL
- measurement.notes: Inside-out patch recording of 1PBC block, mutant Q637A
- Assay type: cell-based
- protocol.conditions: Q637A; V 40 mV
measurement.name: pIC50
Bear in mind: pIC50 is minus log10 of a mol/L concentration; give just that figure.

Req: Determine its reported pIC50: N#Cc1c(C(F)(F)F)cc(O)n2c1nc1ccccc12 [1PBC]
Resp: 5.94

----------
- assay.target: mouse TMEM16A mutant G558P (Mus musculus, UniProt Q8BHY3, G558P)
- Construct: expressed in transfected cells; host or cells: HEK293T
- Sequence (Q8BHY3 1-960 G558P): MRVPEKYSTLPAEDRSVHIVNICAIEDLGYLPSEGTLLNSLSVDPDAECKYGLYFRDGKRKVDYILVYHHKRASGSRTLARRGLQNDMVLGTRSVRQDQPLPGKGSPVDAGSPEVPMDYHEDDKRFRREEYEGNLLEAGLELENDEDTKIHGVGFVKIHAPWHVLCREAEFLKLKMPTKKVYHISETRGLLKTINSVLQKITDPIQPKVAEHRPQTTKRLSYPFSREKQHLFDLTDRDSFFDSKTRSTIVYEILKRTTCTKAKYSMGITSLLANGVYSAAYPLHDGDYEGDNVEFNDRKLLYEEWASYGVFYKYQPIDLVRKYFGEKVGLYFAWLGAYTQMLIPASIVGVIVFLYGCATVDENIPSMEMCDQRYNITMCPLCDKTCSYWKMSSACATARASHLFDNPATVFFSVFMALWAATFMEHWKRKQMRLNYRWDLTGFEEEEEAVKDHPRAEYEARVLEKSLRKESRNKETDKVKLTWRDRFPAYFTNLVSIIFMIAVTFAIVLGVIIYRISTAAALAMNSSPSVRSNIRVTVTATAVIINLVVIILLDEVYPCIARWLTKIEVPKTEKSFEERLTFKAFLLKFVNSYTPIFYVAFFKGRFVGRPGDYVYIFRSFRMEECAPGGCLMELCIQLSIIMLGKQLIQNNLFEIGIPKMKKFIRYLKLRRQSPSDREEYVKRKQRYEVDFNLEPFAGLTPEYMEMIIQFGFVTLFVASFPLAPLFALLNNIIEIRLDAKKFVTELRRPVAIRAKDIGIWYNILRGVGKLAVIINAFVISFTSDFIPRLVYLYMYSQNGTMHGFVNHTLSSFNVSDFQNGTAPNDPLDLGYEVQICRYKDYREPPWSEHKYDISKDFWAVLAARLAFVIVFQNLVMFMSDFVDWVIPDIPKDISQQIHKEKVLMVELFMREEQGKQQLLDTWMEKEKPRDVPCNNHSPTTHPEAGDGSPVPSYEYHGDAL
- measurement.notes: Inside-out patch recording of 1PBC block, mutant G558P
- Type: cell-based
- protocol.conditions: G558P; V 0 mV
- Method: HEK293T cells (ATCC CRL-1573) were maintained in Dulbecco’s modified Eagle’s medium (DMEM; Sigma-Aldrich) supplemented with 10 U ml^−1 penicillin, 0.1 mg ml^−1 streptomycin (Sigma-Aldrich), 2 mM L-glutamine (Sigma-Aldrich), and 10% FBS (Sigma-Aldrich) in a humidified atmosphere containing 5% CO2 at 37 °C. […]
measurement.name: IC50 (µM)
Just the number in µM, nothing appended.

Req: Determine its reported IC50: "N#Cc1c(C(F)(F)F)cc(O)n2c1nc1ccccc12"
Resp: 6.23
